Reported Kd values for a set of compounds
# Target Desc: Fc-fusion protein of human PSMA (hPSMA-Fc) (Homo sapiens, UniProt Q04609)
# Construct: purchased Acro Biosystems PSA-H5264
# Sequence (Q04609 44-750 limits assumed): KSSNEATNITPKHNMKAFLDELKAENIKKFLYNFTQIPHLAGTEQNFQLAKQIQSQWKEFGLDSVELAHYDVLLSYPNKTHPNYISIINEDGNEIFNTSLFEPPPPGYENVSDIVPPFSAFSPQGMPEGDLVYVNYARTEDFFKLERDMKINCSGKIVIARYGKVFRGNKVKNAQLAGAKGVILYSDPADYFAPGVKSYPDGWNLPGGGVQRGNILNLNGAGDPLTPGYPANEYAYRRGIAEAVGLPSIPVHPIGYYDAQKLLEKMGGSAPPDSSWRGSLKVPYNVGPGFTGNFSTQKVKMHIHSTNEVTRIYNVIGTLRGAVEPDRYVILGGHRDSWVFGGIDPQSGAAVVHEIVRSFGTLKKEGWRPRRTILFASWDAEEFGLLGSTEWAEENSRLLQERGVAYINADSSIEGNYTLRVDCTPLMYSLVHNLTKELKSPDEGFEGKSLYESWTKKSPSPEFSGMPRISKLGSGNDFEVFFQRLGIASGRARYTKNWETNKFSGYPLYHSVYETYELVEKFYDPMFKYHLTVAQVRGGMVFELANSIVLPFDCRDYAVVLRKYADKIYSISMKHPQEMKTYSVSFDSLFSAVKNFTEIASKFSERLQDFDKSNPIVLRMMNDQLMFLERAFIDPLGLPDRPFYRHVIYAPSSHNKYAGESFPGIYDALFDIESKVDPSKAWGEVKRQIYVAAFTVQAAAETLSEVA
# Test Name: Surface plasmon resonance assay (Biacore T200, single cycle kinetic)
# Format: binding
# Condition Notes: PSMA SPR assay, category; read-out: pKD CAT (converted)
Numbered stars: 1 amine (or outer) side, 2 acyl side, 3 side chain; on linkers, the order of the positions; unused ones are H or OH. Bridge positions count the residues as written; N and C are the ends. Square brackets hold non-standard residues; d marks the D form. Peptide text beside a SMILES is read from it. * marks the point of attachment. DOTA = O=C(O)CN1CCN(CC(=O)O)CCN(CC(=O)*)CCN(CC(=O)O)CC1; X10 = NC(=O)CN1CCN(CC(=O)O)CCN(CC(=O)*)CCN(CC(=O)O)CC1; Phe(4-Cl) = N[C@@H](Cc1ccc(Cl)cc1)C(=O)O; Arg(Me) = CNC(=N)NCCC[C@H](N)C(=O)O; Ethylenediamine = C(CN[*:2])N[*:1]; tBuAla = CC(C)(C)C[C@H](N)C(=O)O; X1 = O=C(CC1CCN([*:1])CC1)[*:2]; Lys(Me) = CNCCCC[C@H](N)C(=O)O; Tle = CC(C)(C)[C@H](N)C(=O)O; 4Amb = NCc1ccc(C(=O)O)cc1; Nle = CCCC[C@H](N)C(=O)O; Aib = CC(C)(N)C(=O)O; βAla = NCCC(=O)O
Property Name: Kd

[[record]]
compound = "CNCCCC[C@@H]1NC(=O)[C@@H](NC(=O)[C@H](Cc2ccc(Cl)cc2)NC(=O)C(C)(C)NC(=O)[C@@H](NC(=O)CC2CCN(C(=O)CN3CCN(CC(=O)O)CCN(CC(N)=O)CCN(CC(=O)O)CC3)CC2)[C@@H](C)O)CSSC[C@@H](C(=O)N[C@H](C(=O)N[C@H](C(N)=O)[C@@H](C)O)C(C)(C)C)NC(=O)[C@H](CC(N)=O)NC(=O)C(C)(C)NC(=O)[C@H](CCCNC(=N)NC)NC1=O [PSM-0601] (X10-[X1]T[Aib][Phe(4-Cl)]C[Lys(Me)][Arg(Me)][Aib]NC[Tle]T-NH2; disulfide 5-10)"
property_name = "Kd"
result = "< 12.6 nM"

[[record]]
compound = "CCCC[C@H](NC(=O)[C@@H]1CSSC[C@H](NC(=O)[C@H](Cc2ccccc2)NC(=O)[C@H](C)NC(=O)[C@@H](NC(C)=O)[C@@H](C)O)C(=O)N[C@@H](CCCCN)C(=O)N2CCC[C@H]2C(=O)N[C@@H](C)C(=O)N[C@@H](CC(N)=O)C(=O)N1)C(=O)N[C@H](C(=O)N[C@@H](CC(=O)O)C(N)=O)[C@@H](C)O [PSM-0564] (Ac-TAFCKPANC[Nle]TD-NH2; disulfide 4-9)"
property_name = "Kd"
result = "> 501 nM"

[[record]]
compound = "CCCC[C@H](NC(=O)[C@@H]1CSSC[C@H](NC(=O)[C@H](C)NC(=O)[C@H](C)NC(=O)[C@@H](NC(C)=O)[C@@H](C)O)C(=O)N[C@@H](CCCCN)C(=O)N[C@@H](CCCNC(=N)N)C(=O)N[C@@H](C)C(=O)N[C@@H](CC(N)=O)C(=O)N1)C(=O)N[C@H](C(=O)N[C@@H](CC(=O)O)C(N)=O)[C@@H](C)O [PSM-0586] (Ac-TAACKRANC[Nle]TD-NH2; disulfide 4-9)"
property_name = "Kd"
result = "> 501 nM"

[[record]]
compound = "CC(C)(NC(=O)c1ccc(CNC(=O)CN2CCN(CC(=O)O)CCN(CC(=O)O)CCN(CC(=O)O)CC2)cc1)C(=O)N[C@@H](Cc1ccccc1)C(=O)N[C@H]1CSSC[C@@H](C(=O)N[C@H](C(=O)NCCC(N)=O)C(C)(C)C)NC(=O)[C@H](CC(N)=O)NC(=O)C(C)(C)NC(=O)[C@H](CCCNC(=N)N)NC(=O)[C@H](CCCCN)NC1=O [PSM-0574] ({DOTA-4Amb}-[Aib]FCKR[Aib]NC[Tle][βAla]-NH2; disulfide 3-8)"
property_name = "Kd"
result = "12.6 to 126 nM"

[[record]]
compound = "CC(=O)N[C@H](C(=O)NC(C)(C)C(=O)N[C@@H](Cc1ccccc1)C(=O)N[C@H]1CSSC[C@@H](C(=O)N[C@H](C(=O)N[C@H](C(N)=O)[C@@H](C)O)C(C)(C)C)NC(=O)[C@H](Cc2c[nH]c3ccccc23)NC(=O)C(C)(C)NC(=O)[C@H](CCCNC(=N)N)NC(=O)[C@H](CCCCN)NC1=O)[C@@H](C)O [PSM-0589] (Ac-T[Aib]FCKR[Aib]WC[Tle]T-NH2; disulfide 4-9)"
property_name = "Kd"
result = "< 12.6 nM"

[[record]]
compound = "CC(=O)NC(=N)NCCC[C@@H]1NC(=O)[C@H](CCCCN)NC(=O)[C@@H](NC(=O)[C@H](Cc2ccc(Cl)cc2)NC(=O)C(C)(C)NC(=O)[C@@H](NC(C)=O)[C@@H](C)O)CSSC[C@@H](C(=O)N[C@H](C(=O)N[C@H](C(N)=O)[C@@H](C)O)C(C)(C)C)NC(=O)[C@H](CC(N)=O)NC(=O)C(C)(C)NC1=O [PSM-0569] (Ac-T[Aib][Phe(4-Cl)]CKR(Ac)[Aib]NC[Tle]T-NH2; disulfide 4-9)"
property_name = "Kd"
result = "< 12.6 nM"

[[record]]
compound = "CNCCCC[C@@H]1NC(=O)[C@@H](NC(=O)[C@H](Cc2ccccc2)NC(=O)C(C)(C)NC(=O)[C@@H](NC(=O)CC2CCN(C(=O)CN3CCN(CC(=O)O)CCN(CC(=O)O)CCN(CC(=O)O)CC3)CC2)[C@@H](C)O)CSSC[C@@H](C(=O)N[C@H](C(=O)NCCN)C(C)(C)C)NC(=O)[C@H](CC(N)=O)NC(=O)C(C)(C)NC(=O)[C@H](CCCNC(=N)NC)NC1=O [PSM-605] ({DOTA}-[X1]T[Aib]FC[Lys(Me)][Arg(Me)][Aib]NC[Tle]-Ethylenediamine; disulfide 5-10)"
property_name = "Kd"
result = "< 12.6 nM"

[[record]]
compound = "CNCCCC[C@@H]1NC(=O)[C@@H](NC(=O)[C@H](Cc2ccc(Cl)cc2)NC(=O)C(C)(C)NC(=O)[C@@H](NC(=O)CC2CCN(C(=O)CN3CCN(CC(=O)O)CCN(CC(=O)O)CCN(CC(=O)O)CC3)CC2)[C@@H](C)O)CSSC[C@@H](C(=O)N[C@H](C(=O)NCCC(N)=O)C(C)(C)C)NC(=O)[C@H](CC(N)=O)NC(=O)C(C)(C)NC(=O)[C@H](CCCNC(=N)NC)NC1=O [PSM-606] ({DOTA}-[X1]T[Aib][Phe(4-Cl)]C[Lys(Me)][Arg(Me)][Aib]NC[Tle][βAla]-NH2; disulfide 5-10)"
property_name = "Kd"
result = "< 12.6 nM"

[[record]]
compound = "CC(=O)N[C@H](C(=O)NC(C)(C)C(=O)N[C@@H](Cc1ccccc1)C(=O)N[C@H]1CSSC[C@@H](C(=O)N[C@@H](CC(C)(C)C)C(N)=O)NC(=O)[C@H](CC(N)=O)NC(=O)C(C)(C)NC(=O)[C@H](CCCNC(=N)N)NC(=O)[C@H](CCCCN)NC1=O)[C@@H](C)O [PSM-0560] (Ac-T[Aib]FCKR[Aib]NC[tBuAla]-NH2; disulfide 4-9)"
property_name = "Kd"
result = "12.6 to 126 nM"

